B1: ADAMTS4 (parent)
chain: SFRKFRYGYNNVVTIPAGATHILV

Variants of: B1
Assay: protein stability index of a GFP-peptide fusion (GPS, HEK-293T) (PSI 1-6); higher = more stable;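 further: lentivirally expressed fusions sorted by FACS into six bins by GFP to DsRed ratio, PSI derived from sequencing read proportions per bin multiplied by bin number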
Conditions: c terminus: a fixed tail appended
quantity.measured: protein stability index
Form: value (number only, do not type unit).

Please review the entries below; each comes with its answer.
SFRKFRYGYNNVVTIPFGATHILV [A17F] ... 1.96
SFRKFRYGYNNVVTIPAGATHTLV [I22T] ... 1.97
SFRKYRYGYNNVVTIPAGATHILV [F5Y] ... 1.98
SIRKFRYGYNNVVTIPAGATHILV [F2I] ... 2.03
SFRKFRYGYNNVVTHPAGATHILV [I15H] ... 2.01

Next:
Please report protein stability index for the following variant: SFRKFRYGYNNVVTIPPGATHILV [A17P]
1.98
